# credit: PubChem BioAssay

Tested on: Noggin (protein binding on small-molecule microarray)
protocol notes: Noggin binders on small-molecule microarray, primary screen, biochemical, 635/667 nm fluorescence (AID 1095);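 note: score merges 667 nm feature fluorescence with signal to noise over triplicate slides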
condition set: 635 nm fluorescence, higher = more signal
Each entry gets Not met if its composite z-score stays under -0.2, and Met if its composite z-score is -0.2 or above.

Determine whether this molecule has composite z-score no lower than -0.2: COCCCNC(=O)[C@@]1(CCS(=O)(=O)c2ccccc2)N=C(c2ccc(OCCCO)cc2)O[C@H]1c1ccccc1CN=[N+]=[N-]
Met

Determine whether this molecule has composite z-score no lower than -0.2: COCCCNC(=O)[C@@]1(C)c2ccccc2C(=O)N(Cc2cc(F)cc(C(F)(F)F)c2)[C@H]1c1ccc(CO)cc1
Not met

Determine whether this molecule has composite z-score no lower than -0.2: C/C=C/[C@@H](CCn1cc(CCO[Si](C(C)C)(C(C)C)C(C)C)nn1)[Si](C)(C)c1ccc(OC)cc1
Not met

Determine whether this molecule has composite z-score no lower than -0.2: CC(=O)NCCCC[C@@H]1NC(=O)[C@@H]2C[C@H](C(=O)O)[C@H](c3cccc(OCCO)c3)N2C1=O
Met

Determine whether this molecule has composite z-score no lower than -0.2: COCCOC(=O)N1C(=O)[C@@]2(c3cc(C#CCCO)ccc31)[C@H](c1ccccc1OCCO)N1[C@H](c3ccccc3)[C@H](c3ccccc3)OC(=O)[C@H]1[C@@H]2C(=O)NC[C@H](O)c1ccccc1
Met

Determine whether this molecule has composite z-score no lower than -0.2: COc1ccc([Si](C)(C)[C@H]2[C@H](CC(=O)N(CCO)Cc3ccccc3)O[C@@]3(C(=O)N(Cc4ccc(N5CCC5=O)cc4)c4ccccc43)[C@@H]2C)cc1
Met
